- assay target: ER (Homo sapiens, UniProt P03372)
- Construct: host or cells: T47D and MCF7 human breast cancer cells
- protocol description: ER degradation activity, in-cell western blot analysis in T47D cells
- Format: cell-based
- measurement setup: 16 hours, Table A does not say which cell line (T47D or MCF7), read-out: Potency (DC50)
- Experimental: ER degradation activity was evaluated in the human breast cancer cell line T47D and MCF7 purchased from the American Type Culture Collection (ATCC), Manassas, VA, and maintained and cultured in Dulbecco's Modified Eagle's medium (DMEM) containing 10% fetal bovine serum, 1 unit/ml of penicillin and 1 μg/ml of streptomycin. […]
A collection of compounds and their measured DC50

// known answers, use as guide
INSERT INTO assay_data (compound, result) VALUES
  ('C[C@@H]1Cc2c([nH]c3ccccc23)[C@@H](c2c(F)cc(N3CCC(N4CCC(N5Cc6cc7c(cc6C5)C(=O)N(C5CCC(=O)NC5=O)C7=O)CC4)CC3)cc2F)N1CC(F)F (some centres unmarked)', '> 100 nM'),
  ('O=C1CCC(N2Cc3cc4c(cc3C2=O)CN(C2CCN(CC3CCN(c5ccc([C@@H]6c7ccc(O)cc7CC[C@@H]6c6ccc(F)cc6)cc5)CC3)CC2)C4)C(=O)N1 (some centres unmarked)', '< 10 nM'),
  ('O=C1CCC(N2C(=O)c3cc4c(cc3C2=O)CN(C(=O)C2CCC(CN3CCN(c5ccc([C@@H]6c7ccc(O)cc7CC[C@@H]6c6ccccc6)cc5)CC3)CC2)C4)C(=O)N1 (some centres unmarked)', '> 100 nM'),
  ('C[C@@H]1Cc2c([nH]c3ccccc23)[C@@H](c2c(F)cc(N3CCC(CN4CCC(N5Cc6cc7c(cc6C5)C(=O)N(C5CCC(=O)NC5=O)C7=O)CC4)CC3)cc2F)N1CC(F)F (some centres unmarked) [E 51]', '10 to 100 nM'),
  ('C[C@@H]1Cc2c([nH]c3ccccc23)[C@@H](c2c(F)cc(N3CCC(CN4CC(N5Cc6cc7c(cc6C5)C(=O)N(C5CCC(=O)NC5=O)C7=O)C4)CC3)cc2F)N1CC(F)F (some centres unmarked) [E 123]', '10 to 100 nM'),
  ('C[C@@H]1Cc2c([nH]c3ccccc23)[C@@H](c2c(F)cc(N3CCC(C(=O)N4CC(N5Cc6cc7c(cc6C5)C(=O)N(C5CCC(=O)NC5=O)C7=O)C4)CC3)cc2F)N1CC(F)F (some centres unmarked)', '> 100 nM'),
  ('O=C1CCC(N2C(=O)c3cc4c(cc3C2=O)CN(CC(=O)N2CCC3(CC2)CCN(c2ccc([C@@H]5c6ccc(O)cc6CC[C@@H]5c5ccc(F)cc5)cn2)CC3)C4)C(=O)N1 (mixture of isomers)', '> 100 nM'),
  ('O=C1CCC(N2C(=O)c3cc4c(cc3C2=O)CN(CC(=O)N2CC3(CC(Oc5ccc([C@@H]6c7ccc(O)cc7CC[C@H]6c6ccccc6)cc5)C3)C2)C4)C(=O)N1 (some centres unmarked)', '> 100 nM');

Incoming: Give its DC50 value. Item: C[C@H]1Cc2c([nH]c3ccccc23)[C@H](c2c(F)cc(N3CC4(CCN(C(=O)CN5Cc6cc7c(cc6C5)C(=O)N(C5CCC(=O)NC5=O)C7=O)CC4)C3)cc2F)N1CC(F)F (stereo in doubt)
Outgoing: < 10 nM

Incoming: Can you handle C[C@@H]1Cc2c([nH]c3ccccc23)[C@@H](c2c(F)cc(N3CCC(CN4CCC5(CCC(N6Cc7cc8c(cc7C6)C(=O)N(C6CCC(=O)NC6=O)C8=O)C5)CC4)CC3)cc2F)N1CC(F)F (some centres unmarked) next?
Outgoing: 10 to 100 nM

Incoming: Can you handle C[C@@H]1Cc2cc(O)ccc2[C@@H](c2c(F)cc(N3CCC(N4CCC(C(=O)N5Cc6cc7c(cc6C5)C(=O)N(C5CCC(=O)NC5=O)C7=O)CC4)CC3)cc2F)N1CC(C)(F)F (some centres unmarked) next?
Outgoing: > 100 nM

Incoming: Can you handle C[C@@H]1Cc2c([nH]c3ccccc23)[C@@H](c2c(F)cc(N3CC(CC(=O)N4CC(N5Cc6cc7c(cc6C5)C(=O)N(C5CCC(=O)NC5=O)C7)C4)C3)cc2F)N1CC(F)F (some centres unmarked) [E 134] next?
Outgoing: 10 to 100 nM

Incoming: Can you handle O=C1CCC(N2C(=O)c3cc4c(cc3C2=O)CN(c2ccc(CN3CC(Oc5ccc([C@@H]6c7ccc(O)cc7CC[C@@H]6c6ccccc6)cc5)C3)cn2)C4)C(=O)N1 (some centres unmarked) next?
Outgoing: > 100 nM

Incoming: Can you handle O=C1CCC(N2C(=O)c3cc4c(cc3C2=O)CN(CC(=O)N2CC3(CCN(c5ccc([C@@H]6c7ccc(O)cc7CC[C@@H]6c6ccccc6)c(F)c5)CC3)C2)C4)C(=O)N1 (mixture of isomers) next?
Outgoing: 10 to 100 nM

Incoming: Can you handle C[C@@H]1Cc2c([nH]c3ccccc23)[C@@H](c2c(F)cc(C3CCC(CN4CCC(N5Cc6cc7c(cc6C5)C(=O)N(C5CCC(=O)NC5=O)C7)CC4)CC3)cc2F)N1CC(F)F (some centres unmarked) next?
Outgoing: 10 to 100 nM

Incoming: Can you handle O=C1CCC(N2C(=O)c3cc4c(cc3C2=O)CN(CCC(=O)NC2CCN(c3ccc([C@@H]5c6ccc(O)cc6CC[C@@H]5c5ccccc5)cc3)CC2)C4)C(=O)N1 (some centres unmarked) next?
Outgoing: > 100 nM

Incoming: Can you handle O=C1CCC(N2C(=O)c3cc4c(cc3C2=O)CN(C(=O)CN2CCC3(CC2)CC(Oc2ccc([C@@H]5c6ccc(O)cc6CC[C@@H]5c5ccccc5)cc2)C3)C4)C(=O)N1 (some centres unmarked) next?
Outgoing: > 100 nM

Incoming: Can you handle O=C1CCC(N2C(=O)c3cc4c(cc3C2=O)CN(CC2CCN(C(=O)C3CN(c5ccc([C@@H]6c7ccc(O)cc7CC[C@@H]6c6ccccc6)cc5)C3)CC2)C4)C(=O)N1 (some centres unmarked) [E 201] next?
Outgoing: > 100 nM

Incoming: Can you handle O=C1CCC(N2C(=O)c3cc4c(cc3C2=O)CN(CC(=O)N2CCC3(CC2)CCN(c2ccc([C@@H]5c6ccc(O)cc6CC[C@@H]5c5ccc(F)cc5)cc2)CC3)CC4)C(=O)N1 (mixture of isomers) next?
Outgoing: 10 to 100 nM

Incoming: Can you handle C[C@@H]1CC2(CCN(c3ccc([C@@H]4c5ccc(O)cc5CC[C@@H]4c4ccc(F)cc4)cc3)CC2)CN1C(=O)CN1Cc2cc3c(cc2C1)C(=O)N(C1CCC(=O)NC1=O)C3=O (mixture of isomers) next?
Outgoing: 10 to 100 nM

###

- assay target: ER (Homo sapiens, UniProt P03372)
- Construct: host or cells: T47D and MCF7 human breast cancer cells
- protocol description: ER degradation activity, in-cell western blot analysis in T47D cells
- Format: cell-based
- measurement setup: 16 hours, Table A does not say which cell line (T47D or MCF7), read-out: Potency (DC50)
A collection of molecules and their measured DC50

// known answers, use as guide
INSERT INTO assay_data (molecule, result) VALUES
  ('O=C1CCC(N2C(=O)c3cc4c(cc3C2=O)CN(CC2CCN(C(=O)C3CCN(c5ccc([C@@H]6c7ccc(O)cc7CC[C@@H]6c6ccccc6)cc5)CC3)CC2)C4)C(=O)N1 (some centres unmarked) [E 204]', '10 to 100 nM'),
  ('C[C@@H]1Cc2c([nH]c3ccccc23)[C@@H](c2c(F)cc(N3CCCC4(CN(C(=O)CN5Cc6cc7c(cc6C5)C(=O)N(C5CCC(=O)NC5=O)C7)C4)C3)cc2F)N1CC(F)F (some centres unmarked)', '10 to 100 nM'),
  ('O=C1CCC(N2C(=O)c3cc4c(cc3C2=O)CN(CC(=O)N2CCC3(CC2)CCN(c2ncc([C@@H]5c6ccc(O)cc6CC[C@@H]5c5ccccc5)cn2)CC3)C4)C(=O)N1 (mixture of isomers)', '> 100 nM');

Incoming: Give its DC50 value. Item: C[C@@H]1Cc2cc(O)ccc2[C@@H](c2c(F)cc(N3CCC(N4CC(CN5Cc6cc7c(cc6C5)C(=O)N(C5CCC(=O)NC5=O)C7=O)C4)CC3)cc2F)N1CC(F)F (some centres unmarked)
Outgoing: > 100 nM

Incoming: Can you handle O=C1CCC(N2C(=O)c3cc4c(cc3C2=O)CN(C[C@H]2CC[C@H](N3CC(Nc5ccc([C@@H]6c7ccc(O)cc7CC[C@@H]6c6ccccc6)cc5)C3)CC2)C4)C(=O)N1 (some centres unmarked) next?
Outgoing: > 100 nM

Incoming: Can you handle C[C@@H]1Cc2c([nH]c3ccccc23)[C@@H](c2c(F)cc(N3CCC4(CCN(C(=O)CN5Cc6cc7c(cc6C5)C(=O)N(C5CCC(=O)NC5=O)C7=O)CC4)CC3)cc2F)N1CC(F)(F)F (some centres unmarked) next?
Outgoing: 10 to 100 nM

Incoming: Can you handle C[C@@H]1Cc2c([nH]c3ccccc23)[C@@H](c2cnc(N3CCC4(CCN(C(=O)CN5Cc6cc7c(cc6C5)C(=O)N(C5CCC(=O)NC5=O)C7=O)CC4)CC3)nc2)N1CC(F)(F)F (some centres unmarked) next?
Outgoing: < 10 nM
